Tested on: K4 kissing-loop RNA reporter;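 further: bound reporter read as fluorescence of individual clusters on recovered sequencing chips by microscopy, with normalized cluster intensities fitted with a binding model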
test-details: apparent KD of K4 kissing-loop reporter; higher = weaker reporter binding
experimental-context: Eterna round: R107; input ligand: FMN 200 uM
I'd appreciate it if you could supply apparent KD of K4 kissing-loop reporter values for the items below.
Write the value in nM as a bare number.

Look up and state reported apparent KD of K4 kissing-loop reporter for UCGGAGGGAGCGGCCGCCACUGUAUUACCUCGACGAACGCCGGUUUUCAUGAAGUGAUGUUUCGCCAGGACCGGGCUAAUCUGAG [theeternabot_exclusion_KL_Trp_B_46] 244

Look up and state reported apparent KD of K4 kissing-loop reporter for AAUAAUAAUAAAUAAAGAUUGAUGAGCAAACGAGGACCGGUACGGCCGCCACUCGAGUGAUGUUCGAGAAGCUCAUCAAUCAUAA [AK4.8 Exc Tryptophan A] 147

Look up and state reported apparent KD of K4 kissing-loop reporter for AGUCCACUCUAAAGAGUGGACCUAAGGGAUACCAGUGAUGUUGGUCACCCUUGGCAGCCCUCUGUCAUCGAUAAAGAUGGCAGUA 119

Look up and state reported apparent KD of K4 kissing-loop reporter for CGUUUAUAGCAGGAUACCAGUACGGAUAAAGUACGUUAAUAGUAGAGUGAUGUUCUAAAGUACCCUUGGCAGCUUAGAGUGAGUG [ExTheophylB.O] 107

Look up and state reported apparent KD of K4 kissing-loop reporter for AAGUGUCAUUAGACACACGCAUCUAUAAACUAGGAUAUGCUGAUAAGCAGAAGGAGUGAUGUUCCUUUCAUGAUGCGAAUUAAAU [#07 K4 FMN A Exclusion] 224

Look up and state reported apparent KD of K4 kissing-loop reporter for AAUAAUCUAGGUGAUACCAGCUCAACAUGAGUGAUGUUCAUGAAAUAAUGUAGAGUUGAGAGCCCUUGGCAGCACCUAGAUAAUA [KL-SSTheoB5] 264

---

Tested on: MS2 coat protein
test-details: apparent KD of MS2 coat protein, switch ON state; designed switch direction (-1 OFF switch, 1 ON switch): -1; higher = weaker reporter binding
experimental-context: FMN input: 0 or 200 uM; Eterna round: R93 (includes R88 designs)
Rule: apparent KD of MS2 coat protein of 40 nM or more gives Criterion met; anything lower gives Criterion not met.

Quick check: does AGAAACGAAGGAUAUACAUGAGGAUCACCCAUGUAAAGAAAGAGGAGAGCCACAAGAAGUAGAAGGUCGAAGAA [JR_Exc003_Sub007] have apparent KD of MS2 coat protein greater than or equal to 40 nM? Criterion not met

Quick check: does AGCUAGUCAGGAUAUACAAACAUGUCGAAAGACGUGAAGGGACAUGAGGAUCACCCAUGUAGAAGGGACUAGCA [Mod of Janderson's WEB Mod v.2] have apparent KD of MS2 coat protein greater than or equal to 40 nM? Criterion met

Quick check: does AAGAACGCAGGAUAUACAUGAAAGAAAGAAAAGAAAAGAAAACAUGAGGAUCACCCAUGUAGAAGGGCGAAGAA [EteRNA is fun!] have apparent KD of MS2 coat protein greater than or equal to 40 nM? Criterion not met

Quick check: does AAGAAUCGAGGAUAUACAUGAGGAUCACCCAUGUAAAAGAAAGAAAGGGAAAAGAAAAGUAGAAGGCGAAAGAA [Usermaatre-setepenre Shoshenq III] have apparent KD of MS2 coat protein greater than or equal to 40 nM? Criterion not met

Quick check: does AAUGCGGCAGGAUAUACAUGAGGAUCACCCAUGUACAUCAGAUAUAUGGUCGAACCAUGUAGAAGGGCCGCAAA [Ex 3May 57] have apparent KD of MS2 coat protein greater than or equal to 40 nM? Criterion met

Quick check: does GAUAGUGAAGGAUAUACUGGAGGAGUGCGAUAAAAGAAAGAACAUGAGGAUCACCCAUGUAGAAGGUCAGAAGU [JR_Exc002_Sub1226] have apparent KD of MS2 coat protein greater than or equal to 40 nM? Criterion not met

Values from the supplement of paper PMC9170038
